- Test protocol: Toxicity liver stage against HepG2, at 10uM
- Type: cell-based
- Design: test concentration 10 uM, cell line HepG2-A16-CD81EGFP
- Run parameters: human, HepG2-A16-CD81EGFP cells; read-out: INHIBITION
Assay readout: cytotoxicity at 10 µM

Given `COc1ccc(OCCN(C)CCCn2cnc3c(N)ncnc32)cc1` , state its recorded cytotoxicity at 10 µM.
1.12%

Suppose we examine the molecule `N#Cc1ccc(NCc2cc3n(n2)CCCN(C(=O)C2CCC2)C3)nc1` ; what cytotoxicity at 10 µM value has been reported?
-127%

// lookup cytotoxicity at 10 µM for `CCc1ccccc1NC(=O)NCc1nnc(SC)n1C`
3.73%

Looking for the measured cytotoxicity at 10 µM of Cc1cc(=O)c(C(=O)N2CCCCC2c2ccc(F)cc2)c[nH]1 (stereo unspecified) , can you help?
3.71%

// returns reported cytotoxicity at 10 µM for input Cc1cc(C)c(C(=O)N2CCC3(CCCNC3)C2)cc1C (stereo unspecified)
2.52%

Entry `CO[C@@H]1CO[C@@]2(CCN(C(=O)COc3ccccc3C)C2)C1` has what cytotoxicity at 10 µM?
9.95%

====

- Test protocol: Toxicity liver stage against HepG2, at 10uM
- Type: cell-based
- Parameters: test concentration 10 uM, cell line HepG2-A16-CD81EGFP
- Run parameters: human, HepG2-A16-CD81EGFP cells; read-out: INHIBITION
Assay readout: cytotoxicity at 10 µM (%)
Answer in %, number only, no unit symbol.

Quick one: cytotoxicity at 10 µM of `O=C(CC1CC1)N[C@@H]1CN(C(=O)c2ccsc2)C[C@@H]2CCCO[C@@H]21` ?
-109

Requested field: cytotoxicity at 10 µM. Item: Cc1nc2n(n1)CC(NCc1nc(C)c(C)o1)CC2 (stereo unspecified)
-0.925

Need cytotoxicity at 10 µM, item Cc1ccc(C(C)(O)CNC(=O)c2sccc2Br)o1 (stereo unspecified)
4.77

Value lookup for cytotoxicity at 10 µM; key = `CCN1CCN(C(=O)c2cc(C(=O)OC)nn2-c2ccccc2)CC1`
-13.4

Quick one: cytotoxicity at 10 µM of CN(C)CC1(O)CCN(C(=O)Cc2ccc3c(c2)CCCC3)C1 (stereo unspecified) ?
-7.75

Quick check: cytotoxicity at 10 µM of C1=C(CNC2CCc3ncnn3C2)COc2ccccc21 (stereo unspecified) ?
-2.28

Returns the measured cytotoxicity at 10 µM for the input compound. Input: COCC1CN(Cc2ccc(OC)cc2)Cc2nn(C)cc21 (stereo unspecified)
0.976

For the compound shown here, Cc1cc(C(C)NC(=O)CCN2C(=O)c3ccccc3C2=O)c(C)o1 (stereo unspecified) , give the reported cytotoxicity at 10 µM.
-7.82

Entry NC1CCCCN(Cc2ccccc2CS(=O)(=O)c2ccccc2)C1 (stereo unspecified) : reported cytotoxicity at 10 µM = ?
-20.9

// lookup cytotoxicity at 10 µM for `CC(C)(O)c1cn(C2CCN(C(=O)CCC3CCCC3)CC2)nn1`
1.2

So what's the measured cytotoxicity at 10 µM for this one? `O=C(CCCc1nnc(-c2ccccc2)o1)N1CCN(CCO)CC1`
-6.31

====

- Test protocol: Toxicity liver stage against HepG2, at 10uM
- Assay type: cell-based
- Parameters: test concentration 10 uM, cell line HepG2-A16-CD81EGFP
- Run parameters: human, HepG2-A16-CD81EGFP cells; read-out: INHIBITION
Can you tell me cytotoxicity at 10 µM for the items I'm about to list?
The reply should be a number in %, with the unit left off.

Entry O=C(NCC(O)COc1ccc(C(F)(F)F)cc1)Nc1nncs1 (centres undefined) has what cytotoxicity at 10 µM?
-14.2

Report cytotoxicity at 10 µM for Cc1cc(F)ccc1S(=O)(=O)NCC(O)c1cccn1C (centres undefined) please.
-5.62

Item under review: `Cc1cc(NC(=O)c2ccc(CN3CC[C@H](O)C3)cc2)ccc1F` . Reported cytotoxicity at 10 µM?
4.5

Can you share its cytotoxicity at 10 µM? I mean this compound: `CNC(=O)c1cccc(CCNc2ncc(Br)cn2)c1`
9.5

Endpoint output: cytotoxicity at 10 µM of `COc1ccc(NC(=O)Cn2nc(C)c(C)cc2=O)c(OC)c1` . Value?
-3.62

Please report the recorded cytotoxicity at 10 µM for `O=C(Cc1cccc(F)c1)NCCNCc1ccc2c(c1)CCO2` .
-12.5

State the recorded cytotoxicity at 10 µM for this entry: `O=S(=O)(C1CC1)N1CCCn2nnc(Cn3cccc3)c2C1`
9.39

Query: cytotoxicity at 10 µM; subject: `Cc1nc(Oc2ccccc2Cl)sc1C(=O)O`
-11.9

Consider the compound shown here: `COc1cccc(NC(=O)CN2CCN(S(C)(=O)=O)CC2)c1` What is its recorded cytotoxicity at 10 µM?
-1

// lookup cytotoxicity at 10 µM for `Cc1ccc(NC(=O)c2ccc(N3CCCCC3)nn2)c(Cl)c1`
-10.7

// lookup cytotoxicity at 10 µM for `CS(=O)(=O)CCCOc1cccc(-n2ccnc2)c1`
5.13

// lookup cytotoxicity at 10 µM for `Cc1nc(C#N)c(N2CCC(c3nc(-c4ccc(F)cc4)no3)CC2)o1`
3.86

Quick check: cytotoxicity at 10 µM of CN(Cc1cccs1)C(=O)CN1CCCCC1Cn1cncn1 (centres undefined) ?
8.97

May I ask what cytotoxicity at 10 µM has been recorded for O=C(c1ccncc1F)N1CCCC1c1nc(-c2ccccc2)n[nH]1 (centres undefined) ?
1.34

Please give the measured cytotoxicity at 10 µM for this compound: Cc1nnc2n1CCN(C(C)c1nnc(-c3cccs3)o1)C2 (centres undefined)
-11.2

// query cytotoxicity at 10 µM value for entry Cc1cccc(C(=O)NC(C(=O)NCc2ccc(O)nc2)C(C)C)c1 (centres undefined)
-7.81

Please report the recorded cytotoxicity at 10 µM for `COCCN1Cc2ccccc2C2(CCN(C(=O)c3ccco3)CC2)C1` .
5.85

I am curious: what cytotoxicity at 10 µM value has been reported for `c1ccc2cc(OCCCN3CCn4c(nnc4C4CC4)C3)ccc2c1` ?
-11.3

Param item = Cc1noc(C2CCCN(C(=O)c3ccc(Cl)cc3F)C2)n1 (centres undefined) ; retrieve measured cytotoxicity at 10 µM.
-25.3

Using the record for `O=C(Nc1ccccc1-c1ccccc1)N1C[C@@H]2CNC[C@]2(C(=O)O)C1` , report its cytotoxicity at 10 µM.
-40.5

# cytotoxicity at 10 µM lookup, item CS(=O)(=O)c1cncnc1C1CCCN(C(=O)Cc2ccccc2F)C1 (centres undefined)
2.72

Query (compound): Cc1c(NC(=O)C(C)N(C)C)c(=O)n(-c2ccccc2)n1C (centres undefined) ; field requested: cytotoxicity at 10 µM
1.11

Entry under review: `Cc1nn(CC(=O)N2CCN(c3ccncc3)CC2)c(C)c1Cl` . Reported cytotoxicity at 10 µM?
-17.8

Any idea what cytotoxicity at 10 µM was measured for CSCCC(NC(=O)c1ccco1)C(=O)N(C)Cc1ccsc1 (centres undefined) ?
-0.0681
